# tgt: Adenosine receptor A3 (Mus musculus, UniProt Q61618)
# Sequence (Q61618 whole entry): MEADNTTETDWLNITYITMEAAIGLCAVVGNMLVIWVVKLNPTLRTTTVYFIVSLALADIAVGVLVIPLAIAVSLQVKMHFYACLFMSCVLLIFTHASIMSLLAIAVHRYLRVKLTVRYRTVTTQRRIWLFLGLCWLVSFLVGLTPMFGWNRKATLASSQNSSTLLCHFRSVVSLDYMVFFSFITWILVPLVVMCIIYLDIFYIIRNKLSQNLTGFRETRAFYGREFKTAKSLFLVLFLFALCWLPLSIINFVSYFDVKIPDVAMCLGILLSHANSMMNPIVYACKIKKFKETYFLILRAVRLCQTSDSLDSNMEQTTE
Reported Ki by item:
// return numeric value only (unit: nM, not printed)

Worked cases, answers included:
{"mol": "CNC(=O)[C@@]12C[C@@H]1[C@@H](n1cnc3c(NCc4cccc(Cl)c4)nc(C#Cc4ccc(-c5ccccc5)cc4)nc31)[C@H](O)[C@@H]2O", "tgt": "Adenosine receptor A3 (Mus musculus, UniProt Q61618)", "units-text": "nM", "observed-value": 10.8}
{"mol": "CNC(=O)[C@@]12C[C@@H]1[C@@H](n1cnc3c(NCc4cccc(Cl)c4)nc(C#Cc4ccc5ccc6cccc7ccc4c5c67)nc31)[C@H](O)[C@@H]2O", "tgt": "Adenosine receptor A3 (Mus musculus, UniProt Q61618)", "units-text": "nM", "observed-value": 47.6}
{"mol": "CNC(=O)[C@@]12C[C@@H]1[C@@H](n1cnc3c(NCc4cccc(Cl)c4)nc(C#Cc4ccc(N)cc4)nc31)[C@H](O)[C@@H]2O", "tgt": "Adenosine receptor A3 (Mus musculus, UniProt Q61618)", "units-text": "nM", "observed-value": 0.82}
{"mol": "CNC(=O)[C@@]12C[C@@H]1[C@@H](n1cnc3c(NCc4cccc(Cl)c4)nc(C#Cc4ccc(F)cc4)nc31)[C@H](O)[C@@H]2O", "tgt": "Adenosine receptor A3 (Mus musculus, UniProt Q61618)", "units-text": "nM", "observed-value": 2.38}
{"mol": "CNC(=O)[C@@]12C[C@@H]1[C@@H](n1cnc3c(NCc4cccc(Cl)c4)nc(C#Cc4cccc(C(=O)O)c4)nc31)[C@H](O)[C@@H]2O", "tgt": "Adenosine receptor A3 (Mus musculus, UniProt Q61618)", "units-text": "nM", "observed-value": 3.66}
{"mol": "CNC(=O)[C@@]12C[C@@H]1[C@@H](n1cnc3c(NCc4cccc(Cl)c4)nc(C#Cc4cccc(Cl)c4)nc31)[C@H](O)[C@@H]2O", "tgt": "Adenosine receptor A3 (Mus musculus, UniProt Q61618)", "units-text": "nM", "observed-value": 2.39}

Request: Would you mind telling me what Ki value was observed for CNC(=O)[C@@]12C[C@@H]1[C@@H](n1cnc3c(NC)nc(C#Cc4ccc(F)cc4)nc31)[C@H](O)[C@@H]2O ?
Result: 37.7

Request: Would you mind telling me what Ki value was observed for CNC(=O)[C@@]12C[C@@H]1[C@@H](n1cnc3c(NC)nc(C#Cc4ccccc4Cl)nc31)[C@H](O)[C@@H]2O ?
Result: 37.2

Request: Would you mind telling me what Ki value was observed for CNC(=O)[C@@]12C[C@@H]1[C@@H](n1cnc3c(NCc4cccc(Cl)c4)nc(C#Cc4ccccc4Cl)nc31)[C@H](O)[C@@H]2O ?
Result: 2.64

====

# tgt: Adenosine receptor A1 (Mus musculus) (UniProt Q60612)
# Sequence (whole entry): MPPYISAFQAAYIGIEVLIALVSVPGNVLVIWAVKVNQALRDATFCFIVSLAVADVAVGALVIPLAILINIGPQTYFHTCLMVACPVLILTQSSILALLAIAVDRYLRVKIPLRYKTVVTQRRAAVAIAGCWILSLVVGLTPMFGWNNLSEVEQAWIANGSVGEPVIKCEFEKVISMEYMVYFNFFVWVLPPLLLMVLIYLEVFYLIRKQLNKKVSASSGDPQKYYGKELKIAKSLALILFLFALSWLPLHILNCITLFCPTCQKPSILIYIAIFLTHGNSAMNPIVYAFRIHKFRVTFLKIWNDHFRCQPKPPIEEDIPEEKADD
# method: Displacement of from mouse adenosine A1 receptor expressed in HEK293 cells at 10 uM after 60 mins by liquid scintillation counting
# Design: reference not given here
experimental-endpoint: inhibition (%)
// return numeric value only (unit: %, not printed)

Worked cases, answers included:
{"compound": "CNC(=O)[C@@]12C[C@@H]1[C@@H](n1cnc3c(NC)nc(C#Cc4ccccc4Cl)nc31)[C@H](O)[C@@H]2O", "observed-value": 55}
{"compound": "CNC(=O)[C@@]12C[C@@H]1[C@@H](n1cnc3c(NCc4cccc(Cl)c4)nc(C#Cc4ccccc4)nc31)[C@H](O)[C@@H]2O", "observed-value": 50}
{"compound": "CNC(=O)[C@@]12C[C@@H]1[C@@H](n1cnc3c(NCc4cccc(Cl)c4)nc(C#Cc4cccc(Cl)c4)nc31)[C@H](O)[C@@H]2O", "observed-value": 35}
{"compound": "CNC(=O)[C@@]12C[C@@H]1[C@@H](n1cnc3c(NCc4cccc(Cl)c4)nc(C#Cc4ccc5ccc6cccc7ccc4c5c67)nc31)[C@H](O)[C@@H]2O", "observed-value": 8}
{"compound": "CNC(=O)[C@@]12C[C@@H]1[C@@H](n1cnc3c(NCc4cccc(Cl)c4)nc(C#Cc4ccc(F)c(F)c4)nc31)[C@H](O)[C@@H]2O (single isomer, unassigned)", "observed-value": 14}

Now examine the next entry.
Request: Would you mind telling me what inhibition value was observed for CNC(=O)[C@@]12C[C@@H]1[C@@H](n1cnc3c(NCc4cccc(Cl)c4)nc(C#Cc4cccc(C(=O)O)c4)nc31)[C@H](O)[C@@H]2O ?
Result: 18

====

# tgt: Adenosine receptor A1 (Homo sapiens)
# Sequence (whole entry): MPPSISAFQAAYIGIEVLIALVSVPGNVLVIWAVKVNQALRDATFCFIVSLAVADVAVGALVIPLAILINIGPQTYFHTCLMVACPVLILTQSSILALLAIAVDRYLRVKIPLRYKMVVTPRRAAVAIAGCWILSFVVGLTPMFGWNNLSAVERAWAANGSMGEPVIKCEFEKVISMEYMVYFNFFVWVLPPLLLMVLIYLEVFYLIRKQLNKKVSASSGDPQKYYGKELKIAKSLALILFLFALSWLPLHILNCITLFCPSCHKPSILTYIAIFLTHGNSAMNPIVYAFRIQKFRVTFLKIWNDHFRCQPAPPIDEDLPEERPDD
# method: Displacement of [3H]R-PIA from human recombinant adenosine A1 receptor expressed in CHO cells at 10 uM after 60 mins by liquid scintillation counting
# Type: cell-based
experimental-endpoint: inhibition (%)
// return numeric value only (unit: %, not printed)

{"mol": "CNC(=O)[C@@]12C[C@@H]1[C@@H](n1cnc3c(NCc4cccc(Cl)c4)nc(C#Cc4ccc(F)cc4)nc31)[C@H](O)[C@@H]2O", "observed-value": 20}
{"mol": "CNC(=O)[C@@]12C[C@@H]1[C@@H](n1cnc3c(NC)nc(C#Cc4ccc(C(C)(C)C)cc4)nc31)[C@H](O)[C@@H]2O", "observed-value": 23}
{"mol": "CNC(=O)[C@@]12C[C@@H]1[C@@H](n1cnc3c(NC)nc(C#Cc4cc(F)cc(F)c4)nc31)[C@H](O)[C@@H]2O", "observed-value": 8}

Request: Under Adenosine receptor A1 (Homo sapiens): inhibition value of CNC(=O)[C@@]12C[C@@H]1[C@@H](n1cnc3c(NC)nc(C#Cc4ccc(Br)cc4)nc31)[C@H](O)[C@@H]2O ?
Result: 13

Request: Under Adenosine receptor A1 (Homo sapiens): inhibition value of CNC(=O)[C@@]12C[C@@H]1[C@@H](n1cnc3c(NCc4cccc(Cl)c4)nc(C#Cc4ccccc4Cl)nc31)[C@H](O)[C@@H]2O ?
Result: 19

Request: Under Adenosine receptor A1 (Homo sapiens): inhibition value of CNC(=O)[C@@]12C[C@@H]1[C@@H](n1cnc3c(NCc4cccc(Cl)c4)nc(C#Cc4cccc(C(=O)O)c4)nc31)[C@H](O)[C@@H]2O ?
Result: 6

====

# tgt: Adenosine receptor A2a (Homo sapiens, UniProt P29274)
# Sequence (P29274 whole entry): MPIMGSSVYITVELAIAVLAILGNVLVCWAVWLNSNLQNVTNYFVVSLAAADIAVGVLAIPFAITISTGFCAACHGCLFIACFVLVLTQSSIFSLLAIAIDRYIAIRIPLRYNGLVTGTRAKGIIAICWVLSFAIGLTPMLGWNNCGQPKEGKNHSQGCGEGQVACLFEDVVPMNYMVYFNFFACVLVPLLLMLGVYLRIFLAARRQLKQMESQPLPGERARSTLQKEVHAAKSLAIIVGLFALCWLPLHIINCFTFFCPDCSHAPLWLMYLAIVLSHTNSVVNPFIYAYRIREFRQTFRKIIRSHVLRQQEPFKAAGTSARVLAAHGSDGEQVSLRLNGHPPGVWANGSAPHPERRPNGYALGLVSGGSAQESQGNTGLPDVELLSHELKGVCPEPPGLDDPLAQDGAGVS
# method: Displacement of [3H]CGS21680 from human recombinant adenosine A2A receptor expressed in HEK293 cells at 10 uM after 60 mins by liquid scintillation counting
# Type: cell-based
Reported inhibition by item:
// return numeric value only (unit: %, not printed)

Request: Would you mind telling me what inhibition value was observed for CNC(=O)[C@@]12C[C@@H]1[C@@H](n1cnc3c(NC)nc(C#Cc4ccc(F)cc4)nc31)[C@H](O)[C@@H]2O ?
Result: 19

Request: Would you mind telling me what inhibition value was observed for CNC(=O)[C@@]12C[C@@H]1[C@@H](n1cnc3c(NC)nc(C#Cc4cc(F)cc(F)c4)nc31)[C@H](O)[C@@H]2O ?
Result: 47

Request: Would you mind telling me what inhibition value was observed for CNC(=O)[C@@]12C[C@@H]1[C@@H](n1cnc3c(NCc4cccc(Cl)c4)nc(C#Cc4cc5cccc6ccc7cccc4c7c65)nc31)[C@H](O)[C@@H]2O ?
Result: 4

Request: Would you mind telling me what inhibition value was observed for CNC(=O)[C@@]12C[C@@H]1[C@@H](n1cnc3c(NC)nc(C#Cc4ccc(F)c(F)c4)nc31)[C@H](O)[C@@H]2O ?
Result: 6

Request: Would you mind telling me what inhibition value was observed for CNC(=O)[C@@]12C[C@@H]1[C@@H](n1cnc3c(NCc4cccc(Cl)c4)nc(C#Cc4ccccc4)nc31)[C@H](O)[C@@H]2O ?
Result: 27

Request: Would you mind telling me what inhibition value was observed for CCc1ccc(C#Cc2nc(NC)c3ncn([C@H]4[C@H](O)[C@H](O)[C@]5(C(=O)NC)C[C@H]45)c3n2)cc1 ?
Result: 38

Request: Would you mind telling me what inhibition value was observed for CNC(=O)[C@@]12C[C@@H]1[C@@H](n1cnc3c(NCc4cccc(Cl)c4)nc(C#Cc4ccc(F)cc4)nc31)[C@H](O)[C@@H]2O ?
Result: 42
